System: Musca domestica (houseflies)
Assay: Pest toxicity test, contact test
Type: in vivo
Details: 0.1% by weight; milk/sugar; 2 days; flies sprayed directly
endpoint_name: Mortality grading (kill), contact test

compound="O=[N+]([O-])c1ccccc1Nc1c(Cl)c(F)nc(F)c1Cl [Compound 11]" endpoint_name="Mortality grading (kill), contact test" result="0 (O represents less than 30% kill)"
compound="O=[N+]([O-])c1ccc(Nc2c(F)c(F)nc(F)c2F)c([N+](=O)[O-])c1 [Compound 15]" endpoint_name="Mortality grading (kill), contact test" result="2 (2 represents 60 - 90% kill)"
compound="O=[N+]([O-])c1c(F)c(F)c(Nc2c(Cl)c(F)nc(F)c2Cl)c(F)c1F [Compound 12]" endpoint_name="Mortality grading (kill), contact test" result="2 (2 represents 60 - 90% kill)"
compound="O=[N+]([O-])c1ccc(Nc2c(F)c(F)nc(F)c2F)c(C(F)(F)F)c1 [Compound 28]" endpoint_name="Mortality grading (kill), contact test" result="3 (3 represents over 90% kill)"
compound="Fc1nc(F)c(Cl)c(Nc2ccccc2)c1Cl [Compound 2]" endpoint_name="Mortality grading (kill), contact test" result="0 (O represents less than 30% kill)"

Data request: Would you mind telling me what Mortality grading (kill), contact test value was observed for Fc1nc(F)c(Cl)c(Nc2c(Cl)c(F)c(Cl)c(F)c2Cl)c1Cl [Compound 43] ?
Data returned: 3 (3 represents over 90% kill)

Data request: Would you mind telling me what Mortality grading (kill), contact test value was observed for Fc1nc(F)c(Cl)c(Nc2c(F)c(F)c(F)c3c(F)c(F)c(F)c(F)c23)c1Cl [Compound 20] ?
Data returned: 0 (O represents less than 30% kill)

Data request: Would you mind telling me what Mortality grading (kill), contact test value was observed for O=[N+]([O-])c1ccc(Nc2c(Cl)c(Cl)nc(Cl)c2Cl)c(C(F)(F)F)c1 [Compound 41] ?
Data returned: 2 (2 represents 60 - 90% kill)

Data request: Would you mind telling me what Mortality grading (kill), contact test value was observed for O=[N+]([O-])c1cc(Cl)cc([N+](=O)[O-])c1Nc1c(Cl)c(F)nc(F)c1Cl [Compound 29] ?
Data returned: 0 (O represents less than 30% kill)
